# Experimental Target: STAT5b (Homo sapiens)
# Construct: made in house
# Sequence (P51692 whole entry): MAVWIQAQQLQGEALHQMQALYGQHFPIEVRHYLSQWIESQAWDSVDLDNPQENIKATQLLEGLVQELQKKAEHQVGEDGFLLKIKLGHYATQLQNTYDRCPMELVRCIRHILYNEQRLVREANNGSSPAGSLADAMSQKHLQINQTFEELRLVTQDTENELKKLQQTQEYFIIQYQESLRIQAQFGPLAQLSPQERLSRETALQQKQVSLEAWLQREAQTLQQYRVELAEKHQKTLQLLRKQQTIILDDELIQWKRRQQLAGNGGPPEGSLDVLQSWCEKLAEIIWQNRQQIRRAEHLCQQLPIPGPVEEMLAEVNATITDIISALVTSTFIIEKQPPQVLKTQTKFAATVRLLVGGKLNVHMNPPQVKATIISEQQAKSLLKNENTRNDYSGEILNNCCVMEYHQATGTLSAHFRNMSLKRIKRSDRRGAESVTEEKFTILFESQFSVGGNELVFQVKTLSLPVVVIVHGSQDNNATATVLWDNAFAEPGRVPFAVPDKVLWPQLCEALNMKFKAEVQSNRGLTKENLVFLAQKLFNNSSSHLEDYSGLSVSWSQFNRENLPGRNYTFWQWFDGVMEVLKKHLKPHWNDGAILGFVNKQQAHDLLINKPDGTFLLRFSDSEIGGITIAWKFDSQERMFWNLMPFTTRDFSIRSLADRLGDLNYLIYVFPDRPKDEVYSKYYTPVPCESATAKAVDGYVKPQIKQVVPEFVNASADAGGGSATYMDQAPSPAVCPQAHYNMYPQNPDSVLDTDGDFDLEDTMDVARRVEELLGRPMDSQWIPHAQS
# Assay Comment: Fluorescence polarization competitive binding assay, STAT5b
# Assay Context: read-out: Inhibition of STAT5b at 100 µM
Recorded inhibition at 100 µM by entry
Respond with the bare value in %.

Worked cases, answers included:
>>> reported_value("O=C(c1ccc([N+](=O)[O-])cc1)c1coc2ccc(OP(=O)(O)O)cc12")
88
>>> reported_value("O=C(C=Cc1c(F)c(F)c(F)c(F)c1F)c1cccc(OP(=O)(O)O)c1")
37
>>> reported_value("CN(C1CCCCC1)S(=O)(=O)c1cccc(C(=O)N2CCN(c3ccc(OP(=O)(O)O)cc3)CC2)c1")
23

(Q) Tell me its inhibition at 100 µM on STAT5b (Homo sapiens): `O=C(Nc1cccc(OP(=O)(O)O)c1)c1cccc(S(=O)(=O)N2CCCC2)c1`
(A) 4
